PROCEDURE_TEXT: Cytotoxicity against mouse J774A1 cells after 72 hrs by MTT assay
Assay type: cell-based, J774.A1
CONDITIONS: read-out: CC50
MEASURED_PROPERTY: CC50 at 72 h (µg/mL)

In [3]: df
Out[3]:
                                   molecule  measured_result
0  CN1CCN(c2cc(N3CCN(C)CC3)nc(NCCc3c[nH]c4ccccc34)n2)CC1             18.4
1  COc1ccc(C2c3[nH]c4ccccc4c3CCN2c2nc(N3CCOCC3)cc(N3CCOCC3)n2)cc1 (racemic)             67.7
2   N=C(N)c1ccc(OCCCCCOc2ccc(C(=N)N)cc2)cc1             25.1
3  COc1ccc(C2c3[nH]c4ccccc4c3CCN2c2nc(Cl)cc(Cl)n2)cc1OC (racemic)             29.8
4  CCN1CCN(c2cc(N3CCN(CC)CC3)nc(N3CCc4c([nH]c5ccccc45)C3c3ccc4c(c3)OCO4)n2)CC1 (racemic)              2.5
5  Clc1cc(Cl)nc(N2CCc3c([nH]c4ccccc34)C2c2cccc(Br)c2)n1 (racemic)               14
6  CN1CCN(c2cc(N3CCN(C)CC3)nc(N3CCc4c([nH]c5ccccc45)C3c3ccc4c(c3)OCO4)n2)CC1 (racemic)              2.8
7       Clc1cc(Cl)nc(NCCc2c[nH]c3ccccc23)n1             20.6
8  c1ccc2c(CCNc3nc(N4CCOCC4)cc(N4CCOCC4)n3)c[nH]c2c1             19.4

----------
PROCEDURE_TEXT: Cytotoxicity against mouse J774A1 cells after 72 hrs by MTT assay
Type: cell-based, J774.A1
MEASURED_PROPERTY: CC50 at 72 h

                                   compound  measured_property  measured_result
0  Cc1ccc(C2c3[nH]c4ccccc4c3CCN2c2nc(Cl)cc(Cl)n2)cc1 (racemic)       CC50 at 72 h       24.6 µg/mL
1  CCc1ccc(C2c3[nH]c4ccccc4c3CCN2c2nc(Cl)cc(Cl)n2)cc1 (racemic)       CC50 at 72 h       30.7 µg/mL

----------
Test system: KB
PROCEDURE_TEXT: Cytotoxicity against human KB cells up to 50 ug/ml by MTT assay
Type: functional, cell-based
Calls of active or inactive are those of the source. The rule behind the calls is not given here.
MEASURED_PROPERTY: Activity

In [3]: df
Out[3]:
                                   compound  measured_result
0  COc1cccc(C2c3[nH]c4ccccc4c3CCN2c2nc(Cl)cc(Cl)n2)c1 (racemic)         inactive
1  COc1ccc(C2c3[nH]c4ccccc4c3CCN2c2nc(Cl)cc(Cl)n2)c(OC)c1 (racemic)         inactive
2  COc1cc(OC)cc(C2c3[nH]c4ccccc4c3CCN2c2nc(Cl)cc(Cl)n2)c1 (racemic)         inactive
3  COc1ccc(C2c3[nH]c4ccccc4c3CCN2c2nc(Cl)cc(Cl)n2)cc1OC (racemic)         inactive
4  COc1ccccc1C1c2[nH]c3ccccc3c2CCN1c1nc(Cl)cc(Cl)n1 (racemic)         inactive

----------
Test system: DU-145
PROCEDURE_TEXT: Cytotoxicity against human DU145 cells by MTT assay
Type: functional, cell-based
MEASURED_PROPERTY: log10(IC50) (log10 of the value in µg/mL)

In [3]: df
Out[3]:
                                   compound  measured_result
0  CN1CCN(c2cc(N3CCN(C)CC3)nc(NCCc3c[nH]c4ccccc34)n2)CC1             1.33
1  Cc1ccc(C2c3[nH]c4ccccc4c3CCN2c2nc(Cl)cc(Cl)n2)cc1 (racemic)             1.31
2  COc1ccc(C2c3[nH]c4ccccc4c3CCN2c2nc(Cl)cc(Cl)n2)cc1 (racemic)             1.00
3  CCc1ccc(C2c3[nH]c4ccccc4c3CCN2c2nc(Cl)cc(Cl)n2)cc1 (racemic)             1.36
4  CN1CCN(c2cc(N3CCN(C)CC3)nc(N3CCc4c([nH]c5ccccc45)C3c3ccc4c(c3)OCO4)n2)CC1 (racemic)             0.18
5  COc1ccc(C2c3[nH]c4ccccc4c3CCN2c2nc(N3CCOCC3)cc(N3CCOCC3)n2)cc1 (racemic)             0.65
6  CCN1CCN(c2cc(N3CCN(CC)CC3)nc(N3CCc4c([nH]c5ccccc45)C3c3ccc4c(c3)OCO4)n2)CC1 (racemic)             0.79
7  Clc1cc(Cl)nc(N2CCc3c([nH]c4ccccc34)C2c2cccc(Br)c2)n1 (racemic)             1.20
8  Clc1cc(Cl)nc(N2CCc3c([nH]c4ccccc34)C2c2ccc3c(c2)OCO3)n1 (racemic)             0.95

----------
System: Vero
PROCEDURE_TEXT: Cytotoxicity against african green monkey Vero cells by MTT assay
Assay type: cell-based
CONDITIONS: chlorocebus sabaeus
Recorded IC50 by entry
MEASURED_PROPERTY: IC50

>>> print(df.to_string())
                                   molecule  measured_property  measured_result
0  COc1ccc(C2c3[nH]c4ccccc4c3CCN2c2nc(Cl)cc(Cl)n2)cc1 (racemic)               IC50        9.8 µg/mL
1  COc1ccc(C2c3[nH]c4ccccc4c3CCN2c2nc(N3CCOCC3)cc(N3CCOCC3)n2)cc1 (racemic)               IC50        7.8 µg/mL
2  Clc1cc(Cl)nc(N2CCc3c([nH]c4ccccc34)C2c2cccc(Br)c2)n1 (racemic)               IC50       24.3 µg/mL
3  CN1CCN(c2cc(N3CCN(C)CC3)nc(N3CCc4c([nH]c5ccccc45)C3c3ccc4c(c3)OCO4)n2)CC1 (racemic)               IC50        2.6 µg/mL
4  CCN1CCN(c2cc(N3CCN(CC)CC3)nc(N3CCc4c([nH]c5ccccc45)C3c3ccc4c(c3)OCO4)n2)CC1 (racemic)               IC50        5.9 µg/mL
5  Cc1ccc(C2c3[nH]c4ccccc4c3CCN2c2nc(Cl)cc(Cl)n2)cc1 (racemic)               IC50       33.7 µg/mL
6  CN1CCN(c2cc(N3CCN(C)CC3)nc(NCCc3c[nH]c4ccccc34)n2)CC1               IC50       29.7 µg/mL
7  CCc1ccc(C2c3[nH]c4ccccc4c3CCN2c2nc(Cl)cc(Cl)n2)cc1 (racemic)               IC50       37.8 µg/mL
8  Clc1cc(Cl)nc(N2CCc3c([nH]c4ccccc34)C2c2ccc3c(c2)OCO3)n1 (racemic)               IC50        8.2 µg/mL
